run_description: Half life in Sprague-Dawley rat at 0.3 mg/kg, po administered as cassette dosing
Format: ADME, organism-based
Set-up: dose 0.3 mg/kg, route oral
condition_label: in vivo

input_smiles | half-life (h)
CC[C@H](C)C(=O)N1CCC(NC(=O)Nc2ccc(C(F)(F)F)cc2)CC1 | 4.9
CC[C@H](C)C(=O)N1CCC(NC(=O)Nc2ccc(OC(F)(F)F)cc2)CC1 | 4.2
CC(C)C(=O)N1CCC(NC(=O)Nc2ccc(OC(F)(F)F)cc2)CC1 | 3.5
CC(C)C(=O)N1CCC(NC(=O)Nc2ccc(C(F)(F)F)cc2)CC1 | 5.4
